The values you see were collected from patent US20170037028A1.

- assayed.system: GLUT1 (Homo sapiens, UniProt P11166)
- Sequence (P11166 whole entry, species assumed): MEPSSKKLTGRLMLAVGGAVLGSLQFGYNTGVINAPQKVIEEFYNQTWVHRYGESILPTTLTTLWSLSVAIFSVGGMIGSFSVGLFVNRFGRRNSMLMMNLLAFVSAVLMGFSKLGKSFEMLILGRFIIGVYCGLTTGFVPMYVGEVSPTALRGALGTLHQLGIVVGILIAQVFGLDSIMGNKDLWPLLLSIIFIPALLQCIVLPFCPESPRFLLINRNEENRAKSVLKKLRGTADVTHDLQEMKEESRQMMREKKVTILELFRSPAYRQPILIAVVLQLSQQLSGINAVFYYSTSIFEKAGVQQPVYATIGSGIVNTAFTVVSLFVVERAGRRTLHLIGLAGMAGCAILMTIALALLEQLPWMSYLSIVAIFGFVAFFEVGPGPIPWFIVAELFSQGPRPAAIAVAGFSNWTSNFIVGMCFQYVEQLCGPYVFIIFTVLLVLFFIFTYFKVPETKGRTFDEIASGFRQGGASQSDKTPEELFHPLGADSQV
- assay.notes: Indirect measurement of GLUT1 activity by quantification of intracellular ATP levels (glucose induced ATP increase)
- Type: cell-based
- Set-up: endogenous in cells; host or cells: DLD1 or CHO-K1
- particulars: read-out: IC50 regarding glucose induced ATP increase (GLUT1 inhibition)
value.kind: pIC50
One number for each entry, as −log10 of the molar value.

Reference set (2 entries):
INSERT INTO assay_data (structure_as_smiles, value_kind, numeric_readout) VALUES
  ('Cc1nn(Cc2ccc(C(=O)NCCCO)cc2)c(C)c1NC(=O)c1cc(C(F)(F)F)nc2ccc(Br)cc12', 'pIC50', 7.93),
  ('Cc1c(NC(=O)c2cc(C(F)(F)F)nc3ccc(Br)cc23)c(C(F)(F)F)nn1Cc1ccc(C#N)nc1', 'pIC50', 7.82);

Moving on to the next molecule.
What measured pIC50 goes with COc1ccc(CCCn2nc(C)c(NC(=O)c3cc(C(N)=O)nc4ccccc34)c2C)cc1 ?
8.05
